Assay: Inhibition of PBP4 in penicillin-resistant Enterococcus faecium D63r membranes assessed as inhibition of fluorescent ampicillin binding after 20 mins at 37 degC
property: IC50 (µg/mL)
The reply should contain only the number, in µg/mL.

chemical.string | IC50 / µg/mL
Nc1nc(/C(=N/O)C(=O)N[C@@H]2C(=O)N3C(C(=O)O)=C(/C=C4\CCN([C@@H]5CCNC5)C4=O)CS[C@H]23)ns1 | 1.8

Next up:
Exam item: What IC50 value was documented for this compound, CC1(C)S[C@@H]2[C@H](NC(=O)Cc3ccccc3)C(=O)N2[C@H]1C(=O)O ?
Marked response: 8

* * *

Test: Inhibition of PBP3 in penicillin-resistant Enterococcus faecium D63r membranes assessed as inhibition of fluorescent ampicillin binding after 20 mins at 37 degC
property: IC50 (µg/mL)
Answer with a number only, understood to be in µg/mL.

molecule | uom | IC50
CC(C)(O/N=C(\C(=O)N[C@@H]1C(=O)N2C(C(=O)[O-])=C(C[n+]3ccccc3)CS[C@H]12)c1csc(N)n1)C(=O)O [CEFTAZIDIME] | µg/mL | 0.04
CO/N=C(\C(=O)N[C@@H]1C(=O)N2C(C(=O)[O-])=C(C[N+]3(C)CCCC3)CS[C@H]12)c1csc(N)n1 | µg/mL | 0.5

Exam item: I am curious: what IC50 value has been reported for Nc1nc(/C(=N/O)C(=O)N[C@@H]2C(=O)N3C(C(=O)O)=C(/C=C4\CCN([C@@H]5CCNC5)C4=O)CS[C@H]23)ns1 [CEFTOBIPROLE] ?
Marked response: 0.5

Exam item: Recorded IC50 of CC1(C)S[C@@H]2[C@H](NC(=O)Cc3ccccc3)C(=O)N2[C@H]1C(=O)O [PENICILLIN G] , please.
Marked response: 0.6
